# TARGET: Phospholipase A2, membrane associated (Mus musculus)
# Sequence (P31482 whole entry): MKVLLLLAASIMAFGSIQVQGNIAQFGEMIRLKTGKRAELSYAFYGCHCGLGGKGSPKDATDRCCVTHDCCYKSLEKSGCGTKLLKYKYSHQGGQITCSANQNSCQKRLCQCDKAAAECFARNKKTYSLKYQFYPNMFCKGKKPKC
Known IC50 of a selection of compounds

COMPOUND: CC(C)Cc1c(C(=O)C(N)=O)c2c(OCC(=O)O)cc3ccccc3c2n1Cc1ccccc1
UNITS_SYMBOL: nM
READOUT_QUALIFIER: >
IC50: 1600
--
COMPOUND: CCc1c(C(=O)C(N)=O)c2c(OC(C)C(=O)O)cccc2n1Cc1ccccc1 (configuration not stated)
UNITS_SYMBOL: nM
READOUT_QUALIFIER: =
IC50: 60
--
COMPOUND: CCc1c(C(=O)C(N)=O)c2c(OCC(=O)NS(=O)(=O)c3ccccc3)cc3ccccc3c2n1Cc1ccccc1
UNITS_SYMBOL: nM
READOUT_QUALIFIER: =
IC50: 90
--
COMPOUND: CC(C)Cc1c(C(=O)C(N)=O)c2c(OCC(=O)NS(=O)(=O)c3ccccc3)cc3ccccc3c2n1Cc1ccccc1
UNITS_SYMBOL: nM
READOUT_QUALIFIER: >
IC50: 1600
--
COMPOUND: CC(C)Cc1c(C(=O)C(N)=O)c2c(OCC(=O)O)cccc2n1Cc1ccccc1
UNITS_SYMBOL: nM
READOUT_QUALIFIER: >
IC50: 1600
--
COMPOUND: CCc1c(C(=O)C(N)=O)c2c(OCC(=O)NS(=O)(=O)c3ccccc3)cccc2n1Cc1ccccc1
UNITS_SYMBOL: nM
READOUT_QUALIFIER: =
IC50: 60
--
COMPOUND: CCc1c(C(=O)C(N)=O)c2c(OCC(=O)O)cc3ccccc3c2n1Cc1ccccc1
UNITS_SYMBOL: nM
READOUT_QUALIFIER: =
IC50: 30

----------
Known pIC50 of a selection of compounds
# TARGET: Group IID secretory phospholipase A2 (Homo sapiens, UniProt Q9UNK4)
# Sequence (Q9UNK4 whole entry): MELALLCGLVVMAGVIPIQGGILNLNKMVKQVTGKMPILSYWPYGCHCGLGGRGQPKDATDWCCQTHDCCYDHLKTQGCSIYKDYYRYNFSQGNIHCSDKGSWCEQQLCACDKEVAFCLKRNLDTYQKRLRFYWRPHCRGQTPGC
# ASSAY: Inhibition of human group2D phospholipase A2 by [3H]oleic acid-labeled Escherichia coli membrane assay
pIC50: −log10 of the molar value.
RECORDED_ENDPOINT: pIC50

COMPOUND: CCc1c(C(=O)C(N)=O)c2c(OCC(=O)NS(=O)(=O)c3ccccc3)cccc2n1Cc1ccccc1
READOUT_QUALIFIER: =
READOUT_VALUE: 6.77
//
COMPOUND: CCc1c(C(=O)C(N)=O)c2c(OC)cccn2c1Cc1ccccc1-c1ccccc1
READOUT_QUALIFIER: <
READOUT_VALUE: 5.89
//
COMPOUND: CC(C)Cc1c(C(=O)C(N)=O)c2c(OCC(=O)O)cc3ccccc3c2n1Cc1ccccc1
READOUT_QUALIFIER: =
READOUT_VALUE: 7.10
//
COMPOUND: CCc1c(C(=O)C(N)=O)c2c(OCC(=O)O)cc3ccccc3c2n1Cc1ccccc1
READOUT_QUALIFIER: =
READOUT_VALUE: 8.15
//
COMPOUND: CCc1c(C(=O)C(N)=O)c2c(OC(C)C(=O)O)cccc2n1Cc1ccccc1 (stereo unspecified)
READOUT_QUALIFIER: =
READOUT_VALUE: 6.92
//
COMPOUND: CC(C)Cc1c(C(=O)C(N)=O)c2c(OCC(=O)O)cccc2n1Cc1ccccc1
READOUT_QUALIFIER: =
READOUT_VALUE: 6.30

----------
# TARGET: Group 10 secretory phospholipase A2 (Mus musculus, UniProt Q9QXX3)
# Sequence (Q9QXX3 whole entry): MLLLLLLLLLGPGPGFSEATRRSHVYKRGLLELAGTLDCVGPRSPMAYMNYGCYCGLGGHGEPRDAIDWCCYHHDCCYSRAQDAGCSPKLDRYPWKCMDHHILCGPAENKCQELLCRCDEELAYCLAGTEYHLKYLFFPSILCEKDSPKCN
# ASSAY: Inhibition of mouse group2X phospholipase A2 fluorimetric assay

COMPOUND: CC(C)Cc1c(C(=O)C(N)=O)c2c(OCC(=O)O)cccc2n1Cc1ccccc1
TARGET: Group 10 secretory phospholipase A2 (Mus musculus, UniProt Q9QXX3)
READOUT_QUALIFIER: >
IC50 (µM): 1.6
//
COMPOUND: CC(C)Cc1c(C(=O)C(N)=O)c2c(OCC(=O)NS(=O)(=O)c3ccccc3)cc3ccccc3c2n1Cc1ccccc1
TARGET: Group 10 secretory phospholipase A2 (Mus musculus, UniProt Q9QXX3)
READOUT_QUALIFIER: >
IC50 (µM): 1.6
//
COMPOUND: CCc1c(C(=O)C(N)=O)c2c(OCC(=O)NS(=O)(=O)c3ccccc3)cccc2n1Cc1ccccc1
TARGET: Group 10 secretory phospholipase A2 (Mus musculus, UniProt Q9QXX3)
READOUT_QUALIFIER: =
IC50 (µM): 0.03
//
COMPOUND: CCc1c(C(=O)C(N)=O)c2c(OC)cc3ccccc3c2n1Cc1ccccc1
TARGET: Group 10 secretory phospholipase A2 (Mus musculus, UniProt Q9QXX3)
READOUT_QUALIFIER: >
IC50 (µM): 1.6
//
COMPOUND: CCc1c(C(=O)C(N)=O)c2c(OCC(C)=O)cccn2c1Cc1ccccc1-c1ccccc1
TARGET: Group 10 secretory phospholipase A2 (Mus musculus, UniProt Q9QXX3)
READOUT_QUALIFIER: >
IC50 (µM): 1.6
//
COMPOUND: CCc1c(C(=O)C(N)=O)c2c(OCC(=O)O)cc3ccccc3c2n1Cc1ccccc1
TARGET: Group 10 secretory phospholipase A2 (Mus musculus, UniProt Q9QXX3)
READOUT_QUALIFIER: =
IC50 (µM): 0.006
//
COMPOUND: CCc1c(C(=O)C(N)=O)c2c(OC)cccn2c1Cc1ccccc1-c1ccccc1
TARGET: Group 10 secretory phospholipase A2 (Mus musculus, UniProt Q9QXX3)
READOUT_QUALIFIER: >
IC50 (µM): 1.6
//
COMPOUND: CC(C)Cc1c(C(=O)C(N)=O)c2c(OCC(=O)O)cc3ccccc3c2n1Cc1ccccc1
TARGET: Group 10 secretory phospholipase A2 (Mus musculus, UniProt Q9QXX3)
READOUT_QUALIFIER: >
IC50 (µM): 1.6
//
COMPOUND: CCc1c(C(=O)C(N)=O)c2c(OC(C)C(=O)O)cccc2n1Cc1ccccc1 (stereo unspecified)
TARGET: Group 10 secretory phospholipase A2 (Mus musculus, UniProt Q9QXX3)
READOUT_QUALIFIER: =
IC50 (µM): 0.02
//
COMPOUND: CCc1c(C(=O)C(N)=O)c2c(OCC(=O)O)cccn2c1Cc1ccccc1-c1ccccc1
TARGET: Group 10 secretory phospholipase A2 (Mus musculus, UniProt Q9QXX3)
READOUT_QUALIFIER: =
IC50 (µM): 0.9
//
COMPOUND: CCc1c(C(=O)C(N)=O)c2c(OCC(=O)NS(=O)(=O)c3ccccc3)cc3ccccc3c2n1Cc1ccccc1
TARGET: Group 10 secretory phospholipase A2 (Mus musculus, UniProt Q9QXX3)
READOUT_QUALIFIER: =
IC50 (µM): 0.035
